MEASUREMENT_TARGET: Human aromatase enzyme (Homo sapiens)
Sequence (P11511 whole entry): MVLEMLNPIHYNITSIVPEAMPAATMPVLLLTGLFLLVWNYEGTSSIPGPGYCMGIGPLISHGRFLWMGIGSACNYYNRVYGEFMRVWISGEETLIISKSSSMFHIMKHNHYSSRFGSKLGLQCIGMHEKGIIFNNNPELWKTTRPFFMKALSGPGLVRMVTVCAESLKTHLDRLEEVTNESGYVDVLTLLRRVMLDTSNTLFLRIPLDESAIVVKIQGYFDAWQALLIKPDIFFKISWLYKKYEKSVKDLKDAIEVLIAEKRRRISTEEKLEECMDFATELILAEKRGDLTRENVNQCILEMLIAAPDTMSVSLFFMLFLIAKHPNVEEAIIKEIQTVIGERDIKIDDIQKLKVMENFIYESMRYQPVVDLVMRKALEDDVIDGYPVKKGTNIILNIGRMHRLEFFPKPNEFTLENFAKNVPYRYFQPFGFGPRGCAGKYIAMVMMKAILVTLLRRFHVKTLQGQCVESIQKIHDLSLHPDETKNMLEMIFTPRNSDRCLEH
MEASURED_ENDPOINT: pIC50
Bear in mind: pIC50 is minus log10 of a mol/L concentration; give just that figure.

Write down measured pIC50 (Human aromatase enzyme (Homo sapiens)) for this compound. Cc1cc(C)cc(CCCCC(c2ccc(F)cc2)c2c[nH]cn2)c1 (centres unmarked)
5.12

Write down measured pIC50 (Human aromatase enzyme (Homo sapiens)) for this compound. COc1ccc(CCCCC(c2ccc(F)cc2)c2c[nH]cn2)cc1 (centres unmarked) [Compound 12b]
5.52

Write down measured pIC50 (Human aromatase enzyme (Homo sapiens)) for this compound. COc1cccc(CCCCC(c2ccc(F)cc2)c2c[nH]cn2)c1 (centres unmarked) [Compound 11b]
5.59

Write down measured pIC50 (Human aromatase enzyme (Homo sapiens)) for this compound. Cc1cccc(C)c1CCCCC(c1ccc(F)cc1)c1c[nH]cn1 (centres unmarked) [Compound 13b]
5.11

Write down measured pIC50 (Human aromatase enzyme (Homo sapiens)) for this compound. c1ccc(CCC(c2ccccc2)c2cncn2Cc2ccccc2)cc1 (centres unmarked)
4.52
